B1: NELF-E aptamer (parent)
chain: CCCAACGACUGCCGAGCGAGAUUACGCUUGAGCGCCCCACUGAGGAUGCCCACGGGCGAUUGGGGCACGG

Variants of: B1
test summary: HiTS-RAP
test parameters: with NELF-E (Drosophila)
pKd: −log10 of the molar value.
Short version: pKd at least 8 is fulfilled, less is not fulfilled.

For this variant, is measured pKd 8 or higher? `CCCAACGACUGCCGAGCGAGAUUACGCUUGAGCGCCCCGCUGAGGAUGCCCACGGGCGAUUGAGGCACGG`
not fulfilled

For this variant, is measured pKd 8 or higher? `CCCAACGAUGGCCGAGCGAGAUUACGCUUGAGCGCCCCACUGAGGAUGCCCACGGGCGAUUGGGGCACGG`
fulfilled

For this variant, is measured pKd 8 or higher? `CCCUACGACUGCCGAGCGAGAUUACGCUUGAGCGCCCCACUGAGGAUGCCCACGGGCGAUCGGGGCACGG`
not fulfilled

For this variant, is measured pKd 8 or higher? `CCCAACGACGGCCGAGCGAGAUUACGCUUGAGCGCCCCACAGAGGAUGCCCACGGGCGAUUGGGGCACGG`
not fulfilled

For this variant, is measured pKd 8 or higher? `CCCAACGACCGCCGAUCGAGAUUACGCUUGAGCGCCCCACUGAGGAUGCCCACGGGCGAUUGGGGCACGG`
fulfilled

For this variant, is measured pKd 8 or higher? `CCCAACUACUGCCGAGCGAGAUUACGCUUGAGCGCCCCACUGAGGAUGCCCACGGGCGAUUGGGACACGG`
fulfilled

For this variant, is measured pKd 8 or higher? `CCCAACGACUGCCGAGCGAGAUUGCGCUAGAGCGCCCCACUGAGGAUGCCCACGGGCGAUUGGGGCACGG`
fulfilled

For this variant, is measured pKd 8 or higher? `CCCAACGACUGCCGAGCGAGAUUACGCUUGAGCGCCCCACUGAGGAUGCCCACGGGCGAUUGGGGCAGGG`
fulfilled

For this variant, is measured pKd 8 or higher? `CCCAACGACGGCCGAGCGAGAUUACGCUUUAGCGCCCCACUGAGGAUGCCCACGGGCGAUUGGGGCACGG`
fulfilled

For this variant, is measured pKd 8 or higher? `CCCAACUACUGCCGAGCGAGAUUACGCUAGAGCGCCCCACUGAGGAUGCCCACGGGCGAUUGGGGCACGG`
fulfilled

For this variant, is measured pKd 8 or higher? `CCCAACGAGUGCCGAGCGAGAUUACGCUUGAGCGCCCCACCGAGGAUGCCCACGGGCGAUUGGGGCACGG`
not fulfilled

For this variant, is measured pKd 8 or higher? `CCCAACGACUGCCGAGCGAGAGUACGCUUGAGCGCCCCACUGAGGAUGCCCACGGGCGAUUGGGGCACGG`
fulfilled

For this variant, is measured pKd 8 or higher? `CCCAAGGACUGCCGAGCGAGAUUACGCUUGAGCGCCCCACUGAGGAUGCCCACGGGCGGUUGGGGCACGG`
not fulfilled

For this variant, is measured pKd 8 or higher? `CCCAACGACUGCCGAGCGAGAUUACGCUGGAGCGCCCCCCUGAGGAUGCCCACGGGCGAUUGGGGCACGG`
not fulfilled

For this variant, is measured pKd 8 or higher? `CCCAACGACUGCCGAGCGAGAUGAUGCUUGAGCGCCCCACUGAGGAUGCCCACGGGCGAUUGGGGCACGG`
fulfilled

For this variant, is measured pKd 8 or higher? `CCCAACGACUGCCGAGCGAGAUUACACUUGAGCGCCCCACUGAGGAUGCCCACGGGCGAUUGGGGCGCGG`
fulfilled

For this variant, is measured pKd 8 or higher? `CCCAACGACUGCCGAGCGAGAUUACGCUUGAGCGCCCCACUGAGGAUGCCCACGGGUGAUUGGGGCGCGG`
fulfilled

For this variant, is measured pKd 8 or higher? `CCCAACGACUGCCGAGCGAGAGUACGCUUGAGCGCCCCUCUGAGGAUGCCCACGGGCGAUUGGGGCACGG`
not fulfilled

For this variant, is measured pKd 8 or higher? `CCCAACGACCGCGGAGCGAGAUUACGCUUGAGCGCCCCACUGAGGAUGCCCACGGGCGAUUGGGGCACGG`
fulfilled

For this variant, is measured pKd 8 or higher? `CCCAACGACUGCCGAGCGGGAUUACGCUUGAGCGCCCCACUGAGGAUGCCCAUGGGCGAUUGGGGCACGG`
fulfilled

For this variant, is measured pKd 8 or higher? `CCCAACGACUGCCUAGCGAGAUUACGCUUGAGCUCCCCACUGAGGAUGCCCACGGGCGAUUGGGGCACGG`
fulfilled

For this variant, is measured pKd 8 or higher? `CCCAACGAGUGCCGAGCGAGAUUACGCUUGAGCGCCCCACUGUGGAUGCCCACGGGCGAUUGGGGCACGG`
not fulfilled

For this variant, is measured pKd 8 or higher? `CCCAACGUCUGCCGAGCGAGAUUACGCUUGAGCGCCCCUCUGAGGAUGCCCACGGGCGAUUGGGGCACGG`
not fulfilled

For this variant, is measured pKd 8 or higher? `CCCAACGACUGCCUAGCGAGAUUACGCUUGAGCGCCCCACUGAGGGUGCCCACGGGCGAUUGGGGCACGG`
not fulfilled

For this variant, is measured pKd 8 or higher? `CCCAACGACUGCCGAGCGAGAUUACGCCUGAGCGCCCCACUGAGGAUGCCCACGGGCGGUUGGGGCACGG`
not fulfilled

For this variant, is measured pKd 8 or higher? `CCCAACGACUGCCGAGCGAGAUUACGCUUGAGCGCCCCACUGAGGAUGCCCACGGGCGAUAGGGGCACGG`
not fulfilled

For this variant, is measured pKd 8 or higher? `CCCAACGUCUGCCGAGCGAGAUUACGCUUGAGCGCCCCACUGAGGAUGCCCUCGGGCGAUUGGGGCACGG`
not fulfilled

For this variant, is measured pKd 8 or higher? `CCCAACGACUGCCGAGCGGGAUUACGCUUGAGCGCCCCACCGAGGAUGCCCACGGGCGAUUGGGGCACGG`
not fulfilled

For this variant, is measured pKd 8 or higher? `CCCAACGACUGCCGAGCGAAAGUACGCUUGAGCGCCCCACUGAGGAUGCCCACGGGCGAUUGGGGCACGG`
fulfilled

For this variant, is measured pKd 8 or higher? `CCCAACGACUGCCGAGCGAGAUUACGCUUAGGCGCCCCACUGAGGAUGCCCACGGGCGAUUGGGGCACGG`
fulfilled

For this variant, is measured pKd 8 or higher? `CCCGACGACUGCCGAGCGAGAUUACGCUUGAGCGCCCCACUGAGGAUGCCCACGGGCGAUAGGGGCACGG`
not fulfilled

For this variant, is measured pKd 8 or higher? `CCCAACGACUGCCGAGCGGGACUACGCUUGAGCGCCCCACUGAGGAUGCCCACGGGCGAUUGGGGCACGG`
fulfilled

For this variant, is measured pKd 8 or higher? `CCCAACGACUGCCGGGCGAGAUGACGCUUGAGCGCCCCACUGAGGAUGCCCACGGGCGAUUGGGGCACGG`
fulfilled

For this variant, is measured pKd 8 or higher? `CCCAAGGACUGCCGAGCGAGAUUACGUUUGAGCGCCCCACUGAGGAUGCCCACGGGCGAUUGGGGCACGG`
fulfilled

For this variant, is measured pKd 8 or higher? `CCCAACGACUGCCGAGCGAGAUUACGCUUGAGCGCCCCACUGAGGAUGCCCACGGGCGAUUGGGGGACGG`
fulfilled

For this variant, is measured pKd 8 or higher? `CCCAACGACGGCCGAGCGAGAUUACGCUUGACCGCCCCACUGAGGAUGCCCACGGGCGAUUGGGGCACGG`
fulfilled

For this variant, is measured pKd 8 or higher? `CCCAACGACGGCCGAGCGAGAUUAGGCUUGAGCGCCCCACUGAGGAUGCCCACGGGCGAUUGGGGCACGG`
fulfilled
